B1: VTI1B (parent)
chain: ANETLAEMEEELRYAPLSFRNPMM

# Variants of: B1
# ASSAY_COMMENT: protein stability index of a GFP-peptide fusion (GPS, HEK-293T) (PSI 1-6); higher = more stable;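 also: lentivirally expressed fusions sorted by FACS into six bins by GFP to DsRed ratio, PSI derived from sequencing read proportions per bin multiplied by bin number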
# CONDITION_DESCRIPTION: c terminus: a fixed tail appended
MEASUREMENT_TYPE: protein stability index

# MUTATIONS, MEASUREMENT_TYPE, MEASURED
measured = [
    ("F19G", "protein stability index", 4.5),
    ("S18R", "protein stability index", 3.8),
    ("E11R", "protein stability index", 2.31),
    ("Y14R", "protein stability index", 2.47),
    ("F19I", "protein stability index", 3.73),
    ("Y14T", "protein stability index", 2.53),
    ("L5P", "protein stability index", 2.73),
    ("E7L", "protein stability index", 2.5),
    ("A1W", "protein stability index", 2.82),
    ("P16A", "protein stability index", 2.26),
    ("E10M", "protein stability index", 1.87),
    ("P16E", "protein stability index", 2.66),
    ("E11C", "protein stability index", 2.22),
    ("E9T", "protein stability index", 2.94),
    ("A1G", "protein stability index", 3.02),
    ("F19E", "protein stability index", 4.67),
    ("M8H", "protein stability index", 3.39),
    ("P16F", "protein stability index", 2.17),
    ("E10V", "protein stability index", 1.82),
    ("P16D", "protein stability index", 3.56),
    ("M8D", "protein stability index", 3.37),
    ("M24K", "protein stability index", 3.91),
]
